Target: T1, human protein C (PC) zymogen (human, UniProt P04070 43-197; P04070 200-461)
T1 construct: Bought
T1 sequence (P04070 43-197, chain 1 of 2): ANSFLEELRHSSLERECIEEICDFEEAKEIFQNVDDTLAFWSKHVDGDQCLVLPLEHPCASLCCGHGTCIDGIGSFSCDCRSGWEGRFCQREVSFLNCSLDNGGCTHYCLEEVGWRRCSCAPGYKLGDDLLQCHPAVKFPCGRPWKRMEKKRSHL
T1 sequence (P04070 200-461, chain 2 of 2): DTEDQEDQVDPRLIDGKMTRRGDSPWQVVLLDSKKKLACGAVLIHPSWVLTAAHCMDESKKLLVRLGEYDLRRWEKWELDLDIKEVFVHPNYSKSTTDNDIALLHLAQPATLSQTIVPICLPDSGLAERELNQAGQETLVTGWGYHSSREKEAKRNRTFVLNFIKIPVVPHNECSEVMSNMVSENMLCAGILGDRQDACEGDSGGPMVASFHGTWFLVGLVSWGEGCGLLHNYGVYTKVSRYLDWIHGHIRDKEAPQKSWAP
Assay: ELISA screen, PC-coated wells, OD450, n=2
Quantity kind: binding result

[[record]]
binder = "SR16983-R2-P2-F07 (VHH) VHH: QLQLVESGGGLVQAGGSLRLSCAASGSTFSFNYMGWYRQAPGNQRDLVARISSGGITNYADSVKGRFTISGDNAKDTVYLQMNSLKPEDTARYYCFYNGYLNKWGQGTQVTVSS"
observed_measurement = "no binding"

[[record]]
binder = "SR16983-R3-P2-D01 (VHH) VHH: EVQLVESGGGLVQAGGSLRLSCAASGFTFSTKWMYWVRQGPGKGLEWVSTIDASGGSTYYADSVKGRFTISRDNTEKKVYLQMNSLESADTAVYYCARSAGGQFRGRGTQVTVSS"
observed_measurement = "no binding"

